Value source: paper PMC13335484

Biological target: Gh-TDH wild-type (Grimontia hollisae, UniProt A0A377HK12 25-189)
Test: BLI; 50 mM EDTA
Conditions: protein: recombinant; chain copies: 4; label: 5'-biotin; hairpin, 3' overhang 4 nt
QUANTITY_MEASURED: Kd
The answer should read as a number with its unit following.

query: Suppose we examine the binder CTCTATAGAGTTTTCTCTATAGAGTTCT (structured_DNA) [stem-loop dsDNA with 4-nt 3'-overhang] ; what Kd value has been reported?
result: 14.8 µM
